- target under test: HLA-A*02:01 (Homo sapiens, UniProt P04439, D140Y/D185E/D98H/E176V/E277Q/G131W/G231S/I119V/I121R/I166T/I218V/L300P/L318F/N151K/N90K/P208A/P217A/Q86G/Q94H/R138H/R169H/T345S)
- assay explanation: MHC binding assay (UV-ligand exchange, ELISA of stabilized MHC complexes)
- conditions used: MHC class I binding score; binding to HLA-A*02:01 ranged by peptide exchange yield (UV-ligand exchange, ELISA)
value type: Peptide exchange

Reference set (6 entries):
122 (FLLAEDDIYL; listed as Homo sapiens) [compound 122] ... ″+++″ (≥50% = +++)
455 (SLLKEPQKVQL; listed as Homo sapiens) [compound 455] ... ″++″ (≥20% = ++)
616 (VLIDEVESL; listed as Homo sapiens) [compound 616] ... ″+++″ (≥50% = +++)
194 (ALPLFVITV; listed as Homo sapiens) [compound 194] ... ″+++″ (≥50% = +++)
61 (FLQGYQLHL; listed as Homo sapiens) [compound 61] ... ″++++″ (≥75% = ++++)
465 (QLCDLNAEL; listed as Homo sapiens) [compound 465] ... ″+++″ (≥50% = +++)

Lookup: What measured Peptide exchange goes with 344 (YLQDQHLLLTV; listed as Homo sapiens) [compound 344] ?
Found: ″+++″ (≥50% = +++)

Lookup: What measured Peptide exchange goes with 198 (KTINKVPTV; listed as Homo sapiens) [compound 198] ?
Found: ″+++″ (≥50% = +++)

Lookup: What measured Peptide exchange goes with 606 (ALWETEVYI; listed as Homo sapiens) [compound 606] ?
Found: ″+++″ (≥50% = +++)

Lookup: What measured Peptide exchange goes with 594 (IMLKGDNITL; listed as Homo sapiens) [compound 594] ?
Found: ″+++″ (≥50% = +++)

Lookup: What measured Peptide exchange goes with 312 (IISDLTIAL; listed as Homo sapiens) [compound 312] ?
Found: ″+++″ (≥50% = +++)

* * *

- target under test: HLA-A*02:01 (Homo sapiens, UniProt P04439, D140Y/D185E/D98H/E176V/E277Q/G131W/G231S/I119V/I121R/I166T/I218V/L300P/L318F/N151K/N90K/P208A/P217A/Q86G/Q94H/R138H/R169H/T345S)
- assay explanation: MHC binding assay (UV-ligand exchange, ELISA of stabilized MHC complexes)
- conditions used: MHC class I binding score; binding to HLA-A*02:01 ranged by peptide exchange yield (UV-ligand exchange, ELISA)
- From the text: Candidate peptides for T cell based therapies according to the present invention were further tested for their MHC binding capacity (affinity). The individual peptide-MHC complexes were produced by UV-ligand exchange, where a UV-sensitive peptide is cleaved upon UV-irradiation, and exchanged with the peptide of interest as analyzed. Only peptide candidates that can effectively bind and stabilize the peptide-receptive MHC molecules prevent dissociation of the MHC complexes. […]
value type: Peptide exchange

43 (VLSSLEINI; listed as Homo sapiens) [compound 43] ... ″++″ (≥20% = ++)
428 (KLGHTDILVGV; listed as Homo sapiens) [compound 428] ... ″++″ (≥20% = ++)

* * *

- target under test: HLA-A*02:01 (Homo sapiens, UniProt P04439, D140Y/D185E/D98H/E176V/E277Q/G131W/G231S/I119V/I121R/I166T/I218V/L300P/L318F/N151K/N90K/P208A/P217A/Q86G/Q94H/R138H/R169H/T345S)
- assay explanation: MHC binding assay (UV-ligand exchange, ELISA of stabilized MHC complexes)
- conditions used: MHC class I binding score; binding to HLA-A*02:01 ranged by peptide exchange yield (UV-ligand exchange, ELISA)
value type: Peptide exchange

Reference set (4 entries):
4 (GIMEHITKI; listed as Homo sapiens) [compound 4] ... ″++++″ (≥75% = ++++)
31 (YLAPELFVNV; listed as Homo sapiens) [compound 31] ... ″++″ (≥20% = ++)
472 (KLLEVSDDPQV; listed as Homo sapiens) [compound 472] ... ″+++″ (≥50% = +++)
502 (RLLAQVPGL; listed as Homo sapiens) [compound 502] ... ″+++″ (≥50% = +++)

Lookup: What measured Peptide exchange goes with 526 (RLAEVGQYEQV; listed as Homo sapiens) [compound 526] ?
Found: ″++″ (≥20% = ++)

Lookup: What measured Peptide exchange goes with 405 (ALYDVFLEV; listed as Homo sapiens) [compound 405] ?
Found: ″++″ (≥20% = ++)

Lookup: What measured Peptide exchange goes with 491 (GLNDRSDAV; listed as Homo sapiens) [compound 491] ?
Found: ″++″ (≥20% = ++)

Lookup: What measured Peptide exchange goes with 250 (ALSEEGLLVYL; listed as Homo sapiens) [compound 250] ?
Found: ″+++″ (≥50% = +++)

Lookup: What measured Peptide exchange goes with 553 (SLLNQDLHWSL; listed as Homo sapiens) [compound 553] ?
Found: ″++++″ (≥75% = ++++)

Lookup: What measured Peptide exchange goes with 283 (ALYIGDGYVIHLA; listed as Homo sapiens) [compound 283] ?
Found: ″+++″ (≥50% = +++)

Lookup: What measured Peptide exchange goes with 623 (YLVEDIQHI; listed as Homo sapiens) [compound 623] ?
Found: ″+++″ (≥50% = +++)

Hello, the source for this data is patent US10472401B2, in case you need it.
